system.name: human NaV1.8 (Homo sapiens (Human))
procedure.details: Nav1.8 Qube automated patch-clamp assay
Assay type: cell-based
condition: human NaV1.8 stably expressed in HEK 293 cells; automated 384-well patch-clamp; resting or inactivated state not specified
Output: class label from IC50. Mapping: low bracket: < 8 nM; middle bracket: ≥ 8 nM and < 200 nM; high bracket: ≥ 200 nM

O=C1NC[C@@H](C(=O)NC(c2ccc(F)c(Cl)c2)c2ccc(F)c(OCC(F)(F)F)n2)N1 (single isomer, unassigned) [Example 11B]; low bracket
O=C1NC[C@@H](C(=O)NC(c2ccc(F)c(Cl)c2F)[C@@H]2CC[C@@H](C(F)(F)F)CO2)N1 (single isomer, unassigned) [Example 8B]; middle bracket
O=C1NC[C@@H](C(=O)NC(c2ccc(F)c(Cl)c2F)C2CCCCN2CC(F)(F)F)N1 (single isomer, unassigned) [Example 58B]; middle bracket
O=C1NC[C@@H](C(=O)NC(c2ccc(Cl)cc2)c2cnc(C(F)(F)F)[nH]2)N1 (single isomer, unassigned) [Example 22B]; high bracket
N#Cc1ccc(C(NC(=O)[C@@H]2CNC(=O)N2)c2ccc(Cl)c(C(F)(F)F)c2)cc1 (single isomer, unassigned) [Example 60B]; low bracket

Q. // bin(item) where item = O=C1NC[C@@H](C(=O)NC(c2ccc(OC(F)(F)F)c(Cl)c2)c2cnn(C(F)(F)F)c2)N1 (single isomer, unassigned) [Example 41B]
A. middle bracket

Q. // bin(item) where item = O=C1NC[C@@H](C(=O)NC(c2ccc(F)c(Cl)c2F)C2COC(C(F)(F)F)C2)N1 (single isomer, unassigned) [Example 79H]
A. high bracket

Q. // bin(item) where item = CC1(C)CC(C(NC(=O)[C@@H]2CNC(=O)N2)c2ccc(Cl)cc2)CCN1CC(F)(F)F (single isomer, unassigned) [Example 91B]
A. high bracket

Q. // bin(item) where item = O=C1NC[C@@H](C(=O)NC(c2cnc(OCC(F)(F)F)s2)c2ccc(F)c(Cl)c2F)N1 (single isomer, unassigned) [Example 35A]
A. low bracket

Q. // bin(item) where item = O=C1NC[C@@H](C(=O)NC(CC2CCC(F)(F)CC2)c2ccc(F)c(Cl)c2F)N1 (single isomer, unassigned) [Example 25A]
A. middle bracket

###

system.name: human NaV1.8 (Homo sapiens (Human))
procedure.details: Nav1.8 Qube automated patch-clamp assay
Format: cell-based
condition: human NaV1.8 stably expressed in HEK 293 cells; automated 384-well patch-clamp; resting or inactivated state not specified
quantity.name: IC50 (nM)
Respond numerically; units are nM and should not be typed.

O=C1NC[C@@H](C(=O)NC(c2ccc(F)c(Cl)c2F)C2CCCCN2CC(F)(F)F)N1 (single isomer, unassigned) [Example 58A]; 2010

Q. Query IC50 for O=C1NC[C@@H](C(=O)NC(c2ccc(Cl)cc2)c2ccc3cn[nH]c3c2)N1 (single isomer, unassigned) [Example 82A]
A. 255

Q. Query IC50 for Cc1nc2ccc(C(NC(=O)[C@@H]3CNC(=O)N3)c3ccc(Cl)cc3)cc2o1 (single isomer, unassigned) [Example 83B]
A. 201

Q. Query IC50 for CC1(C)CC(C(NC(=O)[C@@H]2CNC(=O)N2)c2ccc(F)c(Cl)c2)C1C(F)(F)F (stereo partly shown)
A. 604

###

system.name: human NaV1.8 (Homo sapiens (Human))
procedure.details: Nav1.8 Qube automated patch-clamp assay
Type: cell-based
condition: human NaV1.8 stably expressed in HEK 293 cells; automated 384-well patch-clamp; resting or inactivated state not specified
Procedure: Compounds were tested on human NaV1.8 and NaV1.5 channels stably expressed in human embryo kidney (HEK) 293 cells. […] For all Qube® experiments offline analysis was used to determine percent inhibition as a function of drug concentration. IC50 values were determined by fitting to the Hill equation.
quantity.name: log10(IC50) (log10 of the value in nM)
Lab note - IC50 converted to log10 from values in nM.

O=C1NC[C@@H](C(=O)NC(c2ccc(OCC(F)(F)F)nn2)c2ccc(F)c(Cl)c2F)N1 (single isomer, unassigned) [Example 50B]; 2.31
O=C1NC[C@@H](C(=O)NC(CC2CCCOC2)c2ccc(F)c(Cl)c2F)N1 (single isomer, unassigned) [Example 26C]; 2.59
O=C1NC[C@@H](C(=O)NC(CC2CCC(C(F)(F)F)CC2)c2ccc(F)c(Cl)c2F)N1 (single isomer, unassigned) [Example 23C]; 1.79
O=C1NC[C@@H](C(=O)NC(c2ccc(OC(F)(F)F)nc2)c2ccc(F)c(C(F)(F)F)n2)N1 (single isomer, unassigned) [Example 45A]; 1.00
O=C1NC[C@@H](C(=O)NC(c2ccc(Cl)cc2)c2ccc(F)c(C(F)(F)F)c2)N1 (single isomer, unassigned) [Example 17A]; -0.22
O=C1NC[C@@H](C(=O)NC(c2ccc(F)c(Cl)c2F)C2CC3(C2)CC(F)(F)C3)N1 (single isomer, unassigned); 1.04
N#Cc1cc(C(NC(=O)[C@@H]2CNC(=O)N2)c2ccc(OC(F)(F)F)cc2)ccc1Cl (single isomer, unassigned) [Example 57B]; 0.38
O=C1NC[C@@H](C(=O)NC(COC2CCC(F)(F)CC2)c2ccc(F)c(Cl)c2)N1 (single isomer, unassigned) [Example 29A]; 2.04
O=C1NC[C@@H](C(=O)NC(c2ccc(Cl)cc2)c2cc(C(F)(F)F)c(F)cn2)N1 (single isomer, unassigned) [Example 59A]; 1.64
O=C1NC[C@@H](C(=O)NC(c2ccc(OC(F)(F)F)c(Cl)c2)c2cnn(C(F)(F)F)c2)N1 (single isomer, unassigned) [Example 41A]; 0.23

Q. Query log10(IC50) for O=C1NC[C@@H](C(=O)NC(c2cnc(C(F)(F)F)nc2)c2ccc(F)c(Cl)c2F)N1 (single isomer, unassigned)
A. 1.20

Q. Query log10(IC50) for O=C1NC[C@@H](C(=O)NC(c2cnc(OC(F)F)nc2)c2ccc(F)c(Cl)c2F)N1 (single isomer, unassigned) [Example 64A]
A. 1.90

Q. Query log10(IC50) for O=C1NC[C@@H](C(=O)NC(c2ccc(Cl)cc2)c2cnc(C(F)(F)F)[nH]2)N1 (single isomer, unassigned) [Example 22A]
A. 2.57

Q. Query log10(IC50) for CC1(C(=O)NC(c2ccc(Cl)cc2)c2ccc(Cl)cc2)NC(=O)NC1=O (single isomer, unassigned) [Example 20A]
A. 4.28

Q. Query log10(IC50) for Cn1nc(C(F)(F)F)cc1C(NC(=O)[C@@H]1CNC(=O)N1)c1ccc(F)c(Cl)c1 (single isomer, unassigned) [Example 31B]
A. 2.43

Q. Query log10(IC50) for O=C1NC[C@@H](C(=O)NC(c2ccc(F)c(Cl)c2F)C2COC(C(F)(F)F)C2)N1 (single isomer, unassigned) [Example 79F]
A. 2.72

Q. Query log10(IC50) for O=C1NC[C@@H](C(=O)NC(c2ccc(F)c(Cl)c2)C2Cc3c(Cl)cccc32)N1 (single isomer, unassigned) [Example 70B]
A. 0.95

Q. Query log10(IC50) for N#Cc1cccc(C(NC(=O)[C@@H]2CNC(=O)N2)c2ccc(F)c(Cl)c2)n1 (single isomer, unassigned) [Example 12A]
A. 1.91

Q. Query log10(IC50) for O=C1NC[C@@H](C(=O)NC(c2ccc(OC(F)(F)F)c(Cl)c2)c2ccnc(C(F)(F)F)n2)N1 (single isomer, unassigned) [Example 49B]
A. 0.83

Q. Query log10(IC50) for O=C1NC[C@@H](C(=O)NC(c2ccc(F)c(Cl)c2)C2C3CN(CC(F)(F)F)CC32)N1 (single isomer, unassigned) [Example 77A]
A. 1.41

Q. Query log10(IC50) for CC(N1CC(C)(C(NC(=O)[C@@H]2CNC(=O)N2)c2ccc(F)c(Cl)c2F)C1)C(F)(F)F (single isomer, unassigned) [Example 65B]
A. 2.48

Q. Query log10(IC50) for O=C1NC[C@@H](C(=O)NC(c2ccc(F)c(Cl)c2)[C@@H]2CC[C@H]2C(F)(F)F)N1 (single isomer, unassigned) [Example 67A]
A. 2.26

Q. Query log10(IC50) for O=C1NC[C@@H](C(=O)NC(c2ccc(F)c(Cl)c2F)C23CC(C(F)(F)F)(C2)C3)N1 (single isomer, unassigned) [Example 27B]
A. 2.39

Q. Query log10(IC50) for O=C1NC[C@@H](C(=O)NC(c2cnc(C(F)(F)F)c(Cl)c2)c2ccc(F)c(C(F)(F)F)n2)N1 (single isomer, unassigned) [Example 14B]
A. 1.32

###

system.name: human NaV1.8 (Homo sapiens (Human), UniProt Q9Y5Y9)
Sequence (Q9Y5Y9 whole entry): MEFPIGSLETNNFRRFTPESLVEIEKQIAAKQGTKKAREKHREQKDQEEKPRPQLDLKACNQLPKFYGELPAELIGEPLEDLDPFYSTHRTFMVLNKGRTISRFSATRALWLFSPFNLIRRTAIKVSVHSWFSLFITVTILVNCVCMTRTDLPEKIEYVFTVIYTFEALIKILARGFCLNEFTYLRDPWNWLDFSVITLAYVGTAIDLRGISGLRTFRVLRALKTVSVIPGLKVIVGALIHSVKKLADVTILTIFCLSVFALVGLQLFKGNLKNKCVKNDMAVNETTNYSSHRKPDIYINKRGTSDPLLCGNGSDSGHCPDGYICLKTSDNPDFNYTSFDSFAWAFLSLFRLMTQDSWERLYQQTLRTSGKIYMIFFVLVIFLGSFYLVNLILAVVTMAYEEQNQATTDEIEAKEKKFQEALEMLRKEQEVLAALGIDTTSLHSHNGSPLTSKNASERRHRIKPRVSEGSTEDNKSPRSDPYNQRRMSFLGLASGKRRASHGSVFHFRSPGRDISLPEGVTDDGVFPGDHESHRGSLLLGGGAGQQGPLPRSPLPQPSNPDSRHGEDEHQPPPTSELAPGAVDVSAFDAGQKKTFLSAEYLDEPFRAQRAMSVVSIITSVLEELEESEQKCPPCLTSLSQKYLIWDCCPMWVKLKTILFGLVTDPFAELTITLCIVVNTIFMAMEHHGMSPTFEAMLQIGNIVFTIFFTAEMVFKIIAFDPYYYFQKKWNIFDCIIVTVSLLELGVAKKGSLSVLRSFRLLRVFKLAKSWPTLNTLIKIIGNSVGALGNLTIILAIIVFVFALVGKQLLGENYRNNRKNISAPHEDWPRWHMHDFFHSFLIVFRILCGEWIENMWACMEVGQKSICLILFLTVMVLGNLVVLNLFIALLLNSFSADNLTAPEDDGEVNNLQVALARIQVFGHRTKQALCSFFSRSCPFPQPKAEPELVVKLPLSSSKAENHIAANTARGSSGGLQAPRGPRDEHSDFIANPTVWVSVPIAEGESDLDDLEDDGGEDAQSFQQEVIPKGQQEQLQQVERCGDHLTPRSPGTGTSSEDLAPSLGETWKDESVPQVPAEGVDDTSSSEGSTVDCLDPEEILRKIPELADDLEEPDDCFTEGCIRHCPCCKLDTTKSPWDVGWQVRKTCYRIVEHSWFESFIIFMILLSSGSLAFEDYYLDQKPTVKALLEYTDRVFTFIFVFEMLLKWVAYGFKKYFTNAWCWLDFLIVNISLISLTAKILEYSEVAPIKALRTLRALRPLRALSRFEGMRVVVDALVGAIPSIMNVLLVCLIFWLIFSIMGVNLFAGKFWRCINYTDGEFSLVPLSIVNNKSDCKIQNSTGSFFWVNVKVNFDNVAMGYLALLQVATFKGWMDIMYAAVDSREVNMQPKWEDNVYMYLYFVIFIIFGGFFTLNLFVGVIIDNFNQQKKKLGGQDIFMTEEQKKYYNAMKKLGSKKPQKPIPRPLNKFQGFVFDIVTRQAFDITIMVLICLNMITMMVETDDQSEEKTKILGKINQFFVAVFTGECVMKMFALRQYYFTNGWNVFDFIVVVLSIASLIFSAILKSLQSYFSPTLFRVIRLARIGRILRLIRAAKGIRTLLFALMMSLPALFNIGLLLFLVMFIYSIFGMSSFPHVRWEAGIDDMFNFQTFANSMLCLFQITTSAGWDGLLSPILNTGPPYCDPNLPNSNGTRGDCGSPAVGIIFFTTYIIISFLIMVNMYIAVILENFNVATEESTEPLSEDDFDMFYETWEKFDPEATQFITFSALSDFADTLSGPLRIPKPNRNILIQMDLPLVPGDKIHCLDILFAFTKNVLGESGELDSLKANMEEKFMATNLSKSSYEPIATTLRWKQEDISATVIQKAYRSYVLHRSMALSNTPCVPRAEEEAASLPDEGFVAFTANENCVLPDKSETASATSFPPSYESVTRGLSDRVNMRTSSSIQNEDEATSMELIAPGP
procedure.details: Nav1.8 Qube automated patch-clamp assay
Type: cell-based
condition: human NaV1.8 stably expressed in HEK 293 cells; automated 384-well patch-clamp; resting or inactivated state not specified
quantity.name: log10(IC50) (log10 of the value in nM)
Lab note - IC50 converted to log10 from values in nM.

Record excerpt, results attached:
O=C1NC[C@@H](C(=O)NC(c2cnc(C(F)(F)F)c(Cl)c2)c2ccc(F)c(C(F)(F)F)n2)N1 (single isomer, unassigned) [Example 14A]; 0.38
O=C1NC[C@@H](C(=O)NC(c2ccc(F)c(Cl)c2)C2Cc3c(Cl)cccc32)N1 (single isomer, unassigned) [Example 70D]; 2.81
CN1C(=O)NCC1C(=O)NC(c1ccc(Cl)cc1)c1ccc(Cl)cc1 (single isomer, unassigned) [Example 2B]; 3.91
O=C1NC[C@@H](C(=O)NC(c2ccc(F)c(Cl)c2)c2cc3cc(Cl)ccc3o2)N1 (single isomer, unassigned) [Example 73B]; -0.70
O=C1NC[C@@H](C(=O)NC(c2ccc(OC(F)(F)F)cc2)c2ccc(F)c(C(F)(F)F)n2)N1 (single isomer, unassigned) [Example 7A]; 0.04
CS(=O)(=O)c1ccc(C(NC(=O)[C@@H]2CNC(=O)N2)c2ccc(F)c(Cl)c2)cc1 (single isomer, unassigned) [Example 85A]; 2.57
O=C1NC[C@@H](C(=O)NC(c2ccc(OC(F)(F)F)cc2)c2ccc(Cl)c(C3CC3)n2)N1 (single isomer, unassigned) [Example 40B]; 0.54
O=C1NC[C@@H](C(=O)NC(c2ccc(F)c(C(F)F)n2)c2ccc(F)c(Cl)c2F)N1 (single isomer, unassigned) [Example 63B]; 1.20
O=C1NC[C@@H](C(=O)NC(c2ccc(F)c(Cl)c2F)[C@H]2C[C@H](C(F)(F)F)C2)N1 (single isomer, unassigned) [Example 34A]; 0.58
O=C1NC[C@@H](C(=O)NC(c2ccc(Cl)cc2)c2ccn3nccc3c2)N1 (single isomer, unassigned) [Example 80A]; 2.00

Q. Query log10(IC50) for O=C1NC[C@@H](C(=O)NC(c2ccc(OC(F)(F)F)c(Cl)c2)c2coc(C(F)(F)F)n2)N1 (single isomer, unassigned) [Example 47A]
A. 0.72

Q. Query log10(IC50) for CC1(C)CC(C(NC(=O)[C@@H]2CNC(=O)N2)c2ccc(F)c(Cl)c2F)C1 (single isomer, unassigned) [Example 30A]
A. 0.66
